- system-tested: T1, SUDV VLP (Sudan virus (SUDV), UniProt Q66814 33-676)
- T1 sequence: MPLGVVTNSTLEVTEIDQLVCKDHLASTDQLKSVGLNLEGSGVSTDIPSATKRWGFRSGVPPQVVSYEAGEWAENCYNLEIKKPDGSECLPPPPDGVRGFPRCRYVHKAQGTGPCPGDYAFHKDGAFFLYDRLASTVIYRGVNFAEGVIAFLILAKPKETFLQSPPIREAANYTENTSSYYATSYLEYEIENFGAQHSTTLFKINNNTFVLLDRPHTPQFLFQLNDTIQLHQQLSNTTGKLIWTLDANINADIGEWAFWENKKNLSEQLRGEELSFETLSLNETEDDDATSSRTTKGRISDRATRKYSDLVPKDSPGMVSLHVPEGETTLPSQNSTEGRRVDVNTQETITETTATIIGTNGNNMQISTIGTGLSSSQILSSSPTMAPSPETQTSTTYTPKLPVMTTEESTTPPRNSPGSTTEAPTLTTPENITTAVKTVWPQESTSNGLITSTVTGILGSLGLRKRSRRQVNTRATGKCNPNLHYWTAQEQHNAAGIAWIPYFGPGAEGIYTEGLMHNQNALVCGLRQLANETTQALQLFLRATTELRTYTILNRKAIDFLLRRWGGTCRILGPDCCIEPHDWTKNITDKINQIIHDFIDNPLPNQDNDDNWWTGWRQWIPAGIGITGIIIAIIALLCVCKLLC
- method-description: ELISA
readout-label: pEC50
Give bare numbers, as −log10 of the molar value.

Below, each entry is followed by its recorded pEC50 result.
FVM16 (antibody, V domains shown) VH: EVQLVQSGAEVKRPGESLKISCRTSGYSFTSTWINWVRQMPGKGLEWLGSIYPGDSETKYNPSFQGHVTISADKSVTTTYLKWSSLKASDTATYYCVKGSETWGQGVLVTVSS VL: KPMLTQPASLSASPGASASLTCTFSGGINVAGYNILWYQQKAGSPPRYLLRYKSDSTKDQGSGVPSRFSGSKDASANTGILRISGLQSEDEADYYCAIGHSSGWVFGGGTRLTVL; 8.85
FVM19 (antibody, V domains shown) VH: QVQLVQSGAEVKRPGESLTISCKTSGYSFTDSWVAWVRQMPGKGLEWLGSIYPGDSDTKYNPSFQGHVTISADKSVTTTYLKWSSLKASDTATYYCVKGSETWGQGVLVTVSS VL: KPMLTQPASLSASPGASASLTCTFSGGINVAGYHIFWYQQKPGSPPRYLLRYKSDSDKGQGSGVPSRFSGSKDASANTGILRISGLQSEDEADYYCAIGHSSGLLFGGGTRLTVL; 8.27

Shifting focus to the binder that follows.
Req: Item FVM06 (antibody, V domains shown) VH: EVQLVQSGAEVKRPGESLTISCKTSGYSFTNYWISWVRQMPGEGLEWMGAIDPSDSDTRYSPSFQGQVTMSADKSITTAYLQWSSLKASDTATYYCVKGSETWGQGVLVTVSS VL: QPVLTQPASLSASPGASASLTCTFSGGINVAGYNILWYQQKAGSPPRYLLRYKSDSTKDQGSGVPSRFSGSKDASANTGILRISGLQSEDEADYYCAIGHSSGWIFGGGTRLTVL has what recorded pEC50?
Resp: 9.67

# credit: patent US20170334973A1
